The origin of these recorded values is patent US11524966B1.

# ASSAYED SYSTEM: USP25 (USP25-His6, Boston Biochem E-546) (Homo sapiens)
# Construct: His6; purchased Boston Biochem E-546
# PROTOCOL TEXT: Ubiquitin-Rhodamine 110 Assay for USP25 Activity, Example A-2
# Type: biochemical
# ASSAY CONTEXT: Ubiquitin-Rhodamine 110 assay, Example A-2; read-out: USP25 A-2 IC50 range
Parameter IC50: see the listing below.

MOLECULE	ENDPOINT LABEL	RESULT
COC[C@@H]1CN(c2nc3c(cc2F)C[C@@H](NC(=O)c2sc4nc(C)ccc4c2N)CC3)C[C@@H]1N	IC50	> 2000 nM
Cc1ccc2c(N)c(C(=O)N[C@H]3COc4cc(N5C[C@@H](N)C(F)(F)C5)ccc4C3)sc2n1	IC50	50 to 200 nM
CO[C@H]1CN(c2cc(F)c3c(c2)OC[C@H](NC(=O)c2sc4nc(C)ccc4c2N)C3)C[C@@H]1N (single isomer, unassigned)	IC50	200 to 2000 nM

Requested field: IC50. Item: `Cc1cc(C)c2c(N)c(C(=O)N[C@H]3COc4cc(N5CC[C@@H]6CNC[C@@H]65)ccc4C3)sc2n1` 50 to 200 nM

# repeat for `Cc1ccc2c(N)c(C(=O)N[C@H]3COc4cc(N5C[C@H](N)C6(COC6)C5)ccc4C3)sc2n1` 200 to 2000 nM

What do we get for `O=C(N[C@H]1COc2cc(N3CCNCC3)ccc2C1)c1cnn2c(CO)cccc12` ? > 2000 nM

Entry `Cc1nc2sc(C(=O)N[C@H]3COc4cc(N5CC6CCC(C5)N6)c(F)c(F)c4C3)c(N)c2s1` please 50 to 200 nM

* * *

pIC50 values for the molecules below.
# ASSAYED SYSTEM: USP25 (USP25-His6, Boston Biochem E-546) (Homo sapiens, UniProt Q9UHP3)
# Construct: His6; purchased Boston Biochem E-546
# Sequence (Q9UHP3 1-1055): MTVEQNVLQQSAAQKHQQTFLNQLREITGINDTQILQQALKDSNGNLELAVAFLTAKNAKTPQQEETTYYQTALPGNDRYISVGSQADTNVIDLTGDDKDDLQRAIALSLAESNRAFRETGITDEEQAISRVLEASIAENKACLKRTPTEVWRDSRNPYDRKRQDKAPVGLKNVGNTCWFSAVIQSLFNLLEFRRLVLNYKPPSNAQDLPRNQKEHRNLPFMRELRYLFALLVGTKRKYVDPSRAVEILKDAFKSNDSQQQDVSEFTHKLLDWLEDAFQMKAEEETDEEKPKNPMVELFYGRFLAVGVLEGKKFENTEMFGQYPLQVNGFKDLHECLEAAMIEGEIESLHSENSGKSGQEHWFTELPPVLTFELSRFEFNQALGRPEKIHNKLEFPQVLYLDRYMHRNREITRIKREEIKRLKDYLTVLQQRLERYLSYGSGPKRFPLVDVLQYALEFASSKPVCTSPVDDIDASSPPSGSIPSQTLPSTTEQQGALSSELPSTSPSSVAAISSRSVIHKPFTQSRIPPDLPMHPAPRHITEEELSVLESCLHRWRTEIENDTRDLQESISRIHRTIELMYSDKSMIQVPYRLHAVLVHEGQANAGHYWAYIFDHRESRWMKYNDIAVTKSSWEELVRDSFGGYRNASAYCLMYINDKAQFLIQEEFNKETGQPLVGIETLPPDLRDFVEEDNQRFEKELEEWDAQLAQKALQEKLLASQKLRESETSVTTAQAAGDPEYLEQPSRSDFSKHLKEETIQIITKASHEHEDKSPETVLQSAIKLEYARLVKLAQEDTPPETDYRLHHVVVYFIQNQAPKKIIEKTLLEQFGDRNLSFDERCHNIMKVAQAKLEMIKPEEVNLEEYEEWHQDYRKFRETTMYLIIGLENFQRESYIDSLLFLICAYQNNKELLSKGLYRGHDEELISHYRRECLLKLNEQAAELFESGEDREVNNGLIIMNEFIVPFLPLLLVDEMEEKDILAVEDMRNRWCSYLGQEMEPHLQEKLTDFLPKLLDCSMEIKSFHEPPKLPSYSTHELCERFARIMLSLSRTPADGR
# PROTOCOL TEXT: Ubiquitin-Rhodamine 110 Assay for USP25 Activity, Example A-2
# Type: biochemical
# ASSAY CONTEXT: Ubiquitin-Rhodamine 110 assay, Example A-2; read-out: USP25 A-2 IC50 range
pIC50: −log10 of the molar value.

// solved cases for pIC50 follow
COMPOUND STRUCTURE STRING	pIC50
Cc1nc2sc(C(=O)N[C@@H]3COc4cc(N5CC6CCC(C5)N6)c(F)cc4C3)c(N)c2s1	5.70 to 6.70
Cc1ccc2c(N)c(C(=O)N[C@H]3COc4cc(N5CCC(F)(F)CC5)ccc4C3)sc2n1	6.70 to 7.30
N#Cc1c(N2CC3CCC(C2)N3)cc(F)c2c1CC[C@@H](NC(=O)c1cnc3c(c1)[C@@H]1C[C@@H]1CN3)C2	< 5.70
CO[C@H]1CN(c2ccc3c(c2F)OC[C@H](NC(=O)c2sc4nc(C)ccc4c2N)C3)C[C@@H]1N	5.70 to 6.70
COC[C@H]1CN(c2nc3c(cc2F)C[C@@H](NC(=O)c2sc4nc(C)ccc4c2N)CC3)C[C@H]1N	< 5.70

Name the recorded pIC50 for `CO[C@H]1CN(c2ccc3c(c2C#N)CC[C@H](NC(=O)c2sc4nc(C)ccc4c2N)C3)C[C@@H]1N` . 5.70 to 6.70

What about `O=C(N[C@H]1COc2cc(N3CCNCC3)ccc2C1)c1ccc(NCc2ccccn2)nc1` ? < 5.70

* * *

# ASSAYED SYSTEM: USP25 (USP25-His6, Boston Biochem E-546) (Homo sapiens, UniProt Q9UHP3)
# Construct: His6; purchased Boston Biochem E-546
# PROTOCOL TEXT: Ubiquitin-Rhodamine 110 Assay for USP25 Activity, Example A-2
# Assay type: biochemical
# ASSAY CONTEXT: Ubiquitin-Rhodamine 110 assay, Example A-2; read-out: USP25 A-2 IC50 range
# Description: The assay was performed in a final volume of 9 μL in assay buffer containing 20 mM Tris-HCl (pH 8.0, (1M Tris-HCl, pH 8.0 solution; Corning 46-031-CM)), 3 mM BME (2-Mercaptoethanol; Sigma 63689-25ML-F), 0.03% BGG (0.22 μM filtered, Sigma, G7516-25G), and 0.01% Triton X-100 (Sigma, T9284-10L). […] Fluorescence was read on the Envision (Excitation at 485 nm and Emission at 535 nm; Perkin Elmer) or on the PheraSTAR (Excitation at 485 nm and Emission at 535 nm; BMG Labtech). […]
pIC50: −log10 of the molar value.
ENDPOINT LABEL: pIC50

MOLECULE	pIC50
Cc1ccc2c(N)c(C(=O)N[C@H]3CCc4cc(N5CCNCC5)c(F)c(F)c4C3)sc2n1	< 5.70

Give the measured pIC50 of `CO[C@H]1CN(c2ccc3c(n2)OC[C@H](NC(=O)c2sc4nc(C)cc(C)c4c2N)C3)C[C@@H]1N` . < 5.70

Query `CO[C@H]1[C@H](N)CN(c2ccc3c(c2)OC[C@H](NC(=O)c2sc4nc(C)ccc4c2N)C3)[C@@H]1C` next 6.70 to 7.30

Please do the same for `CN[C@@H]1CN(c2ccc3c(n2)CC[C@H](NC(=O)c2sc4nc(C)ccc4c2N)C3)C[C@]1(C)O` as well. < 5.70

Try the molecule Cc1ccc2c(N)c(C(=O)N[C@H]3CCc4nc(N5CCNCC5)ccc4C3)sc2n1 (single isomer, unassigned) 5.70 to 6.70

Note, next up: `Cc1ccc2c(N)c(C(=O)N[C@H]3COc4cc(N5CC6CNCC(C5)O6)c(C#N)c(F)c4C3)sc2n1` 6.70 to 7.30

What do you have for `CO[C@H]1CN(c2cc(F)c3c(c2F)OC[C@H](NC(=O)c2sc4nc(C)ccc4c2N)C3)C[C@@H]1N` ? 5.70 to 6.70

* * *

# ASSAYED SYSTEM: USP25 (USP25-His6, Boston Biochem E-546) (Homo sapiens)
# Construct: His6; purchased Boston Biochem E-546
# PROTOCOL TEXT: Ubiquitin-Rhodamine 110 Assay for USP25 Activity, Example A-2
# Type: biochemical
# ASSAY CONTEXT: Ubiquitin-Rhodamine 110 assay, Example A-2; read-out: USP25 A-2 IC50 range
ENDPOINT LABEL: IC50

COMPOUND	IC50
Cc1ccc2c(N)c(C(=O)N[C@H]3CCc4nc(N5C[C@H]6NCCC(F)(F)[C@H]6C5)ccc4C3)sc2n1 [Example 329]	200 to 2000 nM

Recorded IC50 for Cc1ccc2c(N)c(C(=O)N[C@H]3CCc4nc(N5CCN[C@@H](C)C5)ccc4C3)sc2n1 (single isomer, unassigned) [Example 23-15] , please? 200 to 2000 nM

Param item: CO[C@H]1CN(c2ccc3c(c2)OC[C@H](NC(=O)c2sc4nc(C)ccc4c2N)C3)[C@@H](C)[C@@H]1N [Example 333] 50 to 200 nM
